Target: hCB1R (Homo sapiens, UniProt P21554)
Construct: expressed in transfected cells; host or cells: CHO-K1
Sequence (P21554 whole entry): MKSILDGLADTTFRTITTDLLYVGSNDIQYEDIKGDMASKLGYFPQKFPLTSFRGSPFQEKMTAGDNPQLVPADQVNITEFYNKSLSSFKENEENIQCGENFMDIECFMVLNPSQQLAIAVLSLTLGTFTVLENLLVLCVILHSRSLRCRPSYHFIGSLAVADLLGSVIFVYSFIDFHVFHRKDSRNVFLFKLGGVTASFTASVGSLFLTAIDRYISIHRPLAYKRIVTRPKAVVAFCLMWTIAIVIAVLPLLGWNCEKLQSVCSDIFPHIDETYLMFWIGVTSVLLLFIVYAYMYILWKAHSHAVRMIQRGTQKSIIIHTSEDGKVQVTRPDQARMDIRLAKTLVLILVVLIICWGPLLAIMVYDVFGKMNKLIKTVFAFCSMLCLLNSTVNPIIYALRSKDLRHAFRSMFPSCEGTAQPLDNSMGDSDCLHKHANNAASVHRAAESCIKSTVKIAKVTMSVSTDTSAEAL
Experiment: cell-based
Format: cell-based
Details: CHO hCB1R; 90 min; value with 95% CI; read-out: CB1R βarrestin2 recruitment EC50
# Lookup of reported pEC50 keyed by entry
Formally, pEC50 is defined as -log10 of the concentration c, with c in mol/L.

compound | pEC50
CCCC(F)Cn1nc(C(=O)NC(C(N)=O)C(C)C)c2ccccc21 (stereo not drawn) [AB-PINACA N-(2-fluoropentyl) isomer] | 6.62
O=C(Oc1cccc2cccnc12)c1nn(CCCCCF)c2ccccc12 | 6.08
CCC(Cl)CCn1nc(C(=O)NC(C(N)=O)C(C)C)c2ccccc21 (centres unmarked) | 6.85
CCCCCn1cc(C(=O)c2ccc(CCC)c3ccccc23)c2ccccc21 | 5.80
CC(C)C(NC(=O)c1nn(Cc2ccccc2F)c2ccccc12)C(N)=O (centres unmarked) | 6.09

Continue with the compound presented below.
Data request: Request - read-out pEC50 | tested on hCB1R (Homo sapiens, UniProt P21554) | compound COC(=O)[C@@H](NC(=O)c1nn(CCCCF)c2ccccc12)C(C)(C)C
Data returned: 7.06

---

Molecular target: hCB2R (Homo sapiens)
Construct: host or cells: CHO-K1 (PathHunter)
Experiment: HitHunter inhibition of FSK-stimulated cAMP, CB2R
Assay type: cell-based
Conditions: CHO hCB2R; 10 µM FSK; 90 min; value with 95% CI; read-out: CB2R cAMP Inhibition EC50
measure-name: EC50 (nM)
Use nM as the unit, but write only the number.

Data request: Request - read-out EC50 | tested on hCB2R (Homo sapiens) | compound CCCCCn1c2ccccc2c2cc(C(=O)c3cccc4ccccc34)ccc21
Data returned: 51

---

Molecular target: hCB2R (Homo sapiens, UniProt P34972)
Construct: host or cells: CHO-K1 (PathHunter)
Sequence (P34972 whole entry): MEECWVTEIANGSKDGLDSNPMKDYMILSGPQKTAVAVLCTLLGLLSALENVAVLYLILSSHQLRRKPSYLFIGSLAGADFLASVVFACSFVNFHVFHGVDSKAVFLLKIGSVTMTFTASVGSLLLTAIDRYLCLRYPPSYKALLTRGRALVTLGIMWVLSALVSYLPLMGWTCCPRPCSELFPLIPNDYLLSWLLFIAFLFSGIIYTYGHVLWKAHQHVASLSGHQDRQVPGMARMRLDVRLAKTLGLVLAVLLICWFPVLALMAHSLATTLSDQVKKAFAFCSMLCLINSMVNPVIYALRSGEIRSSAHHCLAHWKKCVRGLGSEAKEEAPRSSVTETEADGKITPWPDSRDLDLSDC
Test: [^3H]CP55,940 competition (radioligand displacement) binding to CB2R
Conditions: bottom of the concentration–response curve; mean ± SEM
// classify: if (CB2R [^3H]CP55,940 Emin < 70%) true (1) else false (0)

Example entries and their recorded answers appear below.
compound | category-label
O=C(Nc1cccc2ccccc12)c1cn(Cc2ccc(F)cc2)c2ccccc12 [FDU-NNEI] | false (0)
CCC(Cl)CCn1nc(C(=O)NC(C(N)=O)C(C)C)c2ccccc21 (centres unmarked) [3-chloro AB-PINACA] | false (0)
O=C(Oc1cccc2cccnc12)c1nn(CCCCCF)c2ccccc12 [5-fluoro NPB-22] | true (1)
N#CCCCCn1cc(C(=O)c2cccc3ccccc23)c2ccccc21 [AM 2232] | false (0)
Cc1ccc(C(=O)c2cn(CCCCCCl)c3ccccc23)c2ccccc12 [MAM2201 N-(5-chloropentyl) analog] | true (1)
O=C(c1ccc(Cl)c2ccccc12)c1cn(CCCCCF)c2ccccc12 [Cl 2201] | true (1)

Okay, now this compound:
Data request: Threshold test, CB2R [^3H]CP55,940 Emin < 70%: CCCC(F)Cn1nc(C(=O)NC(C(N)=O)C(C)C)c2ccccc21 (stereo not drawn) [AB-PINACA N-(2-fluoropentyl) isomer]
Data returned: true (1)

---

pKi, hCB1R (Homo sapiens, UniProt P21554): measured values
Formally, pKi is defined as -log10 of the concentration c, with c in mol/L.

compound | pKi
CC(C)C(NC(=O)c1nn(Cc2ccccc2F)c2ccccc12)C(N)=O (centres unmarked) [ortho-AB-FUBINACA] | 8.57
COC(=O)[C@H](Cc1ccccc1)NC(=O)c1cn(CCCCCF)c2ccccc12 [5-fluoro MPP-PICA] | 5.92
COC(=O)[C@@H](NC(=O)c1nn(CCCCF)c2ccccc12)C(C)(C)C [4-fluoro MDMB-BINACA] | 7.00
CC(C)C(NC(=O)c1nn(Cc2cccc(F)c2)c2ccccc12)C(N)=O (centres unmarked) [meta-AB-FUBINACA] | 7.80
CCCCCn1cc(C(=O)c2cccc3ccccc23)cc1-c1ccccc1 [JWH 145] | 6.96

Data request: Request - read-out pKi | tested on hCB1R (Homo sapiens, UniProt P21554) | compound O=C(c1ccc(Cl)c2ccccc12)c1cn(CCCCCF)c2ccccc12 [Cl 2201]
Data returned: 10.05

Data request: Item: CCCC(F)Cn1nc(C(=O)NC(C(N)=O)C(C)C)c2ccccc21 (stereo not drawn) [AB-PINACA N-(2-fluoropentyl) isomer]
Data returned: 8.80
